Assay overview: chemical genetic growth profiling, strain panel (AID 1159580);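 further: tested at 20 µM; growth read once vehicle control cultures reached saturation at 30 °C; 1 = growth at the plate median or of vehicle wells; lower values mean less growth of the strain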
Protocol conditions: S. cerevisiae deletion strains, growth OD, locus YHR079C, strain IRE1, active compounds read low
In all, about 5,500 compounds went through this assay and about 2,000 (36%) were called active. About 18% were inconclusive and are not listed. Some of the results follow.
# normalized growth per record follows

Compound	normalized growth
FC(F)(F)c1ccc(N2CCc3ccccc3C2)c(NC(=S)Nc2cc(Cl)cc(Cl)c2)c1	1.06 (inactive)
FC(F)(F)c1cccc(NC(=S)NN=C2CCCCCC2)c1	0.81 (inactive)
CCCC(C)(COC(N)=O)COC(=O)NC(C)C (stereo not given)	0.974 (inactive)

Report normalized growth for CO[C@@]1(NC(=O)C(C(=O)O)c2ccc(O)cc2)C(=O)N2C(C(=O)O)=C(CSc3nnnn3C)CO[C@@H]21 (stereo not given in full) please.
0.99 (inactive)

Query: normalized growth; subject: NS(=O)(=O)c1cc(C2(O)NC(=O)c3ccccc32)ccc1Cl (stereo not given)
0.99 (inactive)
